Target: T1, TRCW5 antigen (CD3δε-Fc-Avi) (biotinylated (site not stated))
T1 construct: also called recombinant CD3
T1 sequence (chain, as listed by the source mutant limits assumed): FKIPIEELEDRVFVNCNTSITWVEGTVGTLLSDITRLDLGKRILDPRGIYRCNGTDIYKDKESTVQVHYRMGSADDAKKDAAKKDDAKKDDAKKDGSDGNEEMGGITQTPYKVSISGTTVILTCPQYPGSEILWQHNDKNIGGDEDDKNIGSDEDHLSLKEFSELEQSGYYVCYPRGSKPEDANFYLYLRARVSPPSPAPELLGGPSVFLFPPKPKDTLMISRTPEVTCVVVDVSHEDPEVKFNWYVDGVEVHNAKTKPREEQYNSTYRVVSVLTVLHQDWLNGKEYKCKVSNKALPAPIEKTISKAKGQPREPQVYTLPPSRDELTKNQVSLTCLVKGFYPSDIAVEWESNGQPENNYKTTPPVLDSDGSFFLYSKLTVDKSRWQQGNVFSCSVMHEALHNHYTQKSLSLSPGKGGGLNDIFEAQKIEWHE
Assay: ELISA after heat
Hi, to clarify the labels: 1 covers % Retained 60° C. from 90% upward, 0 covers anything below 90%.

Observe how each entry below is paired with its result.
Binder: CD3B2080 (scFv) scFv: QVQLVQSGAEVKKPGSSVKVSCKASGYTFTRSTMHWVRQAPGQGLEWIGYINPSSAYTNYAQKFQGRVTLTADKSTSTAYMELSSLRSEDTAVYYCASPQVHYDYNGFPYWGQGTLVTVSSGGSEGKSSGSGSESKSTGGSEIVLTQSPATLSASPGERVTLSCSASSSVSYMNWYQQKPGQSPRRWIYDSSKLASGVPARFSGSGSGRDYTLTISSLEPEDFAVYYCQQWSRNPPTFGGGTKVEIK
Qualitative Label: 1
//
Binder: CD3B1128 (scFv, also called Murine LH; murine Cris-7 scFv (LH)) scFv: QVVLTQSPAIMSAFPGEKVTMTCSASSSVSYMNWYQQKSGTSPKRWIYDSSKLASGVPARFSGSGSGTSYSLTISSMETEDAATYYCQQWSRNPPTFGGGTKLQITGGSEGKSSGSGSESKSTGGSQVQLQQSGAELARPGASVKMSCKASGYTFTRSTMHWVKQRPGQGLEWIGYINPSSAYTNYNQKFKDKATLTADKSSSTAYMQLSSLTSEDSAVYYCASPQVHYDYNGFPYWGQGTLVTVSA
Qualitative Label: 0
//
Binder: CD3B2051 (scFv) scFv: QVQLVQSGAEVKKPGSSVKVSCKASGYTFTRSTMHWVKQAPGQGLEWMGYINPSSAYTNYNQKFQGRVTLTADKSTSTAYMELSSLRSEDTAVYYCASPQVHYDYNGFPYWGQGTLVTVSSGGSEGKSSGSGSESKSTGGSEIVLTQSPATLSASPGERVTLSCSASSSVSYMNWYQQKPGQAPRRLIYDSSKLASGVPARFSGSGSGRDYTLTISSLEPEDFAVYYCQQWSRNPPTFGGGTKVEIK
Qualitative Label: 1

Please check the record CD3B1130 (scFv, also called IGHV1-69*02-IGHJ1-01 / IGKV3-11*02-IGKJ4-01 grafted construct, HL) scFv: QVQLVQSGAEVKKPGSSVKVSCKASGYTFTRSTMHWVRQAPGQGLEWMGYINPSSAYTNYNQKFQGRVTLTADKSTSTAYMELSSLRSEDTAVYYCARPQVHYDYNGFPYWGQGTLVTVSSGGSEGKSSGSGSESKSTGGSEIVLTQSPATLSLSPGERATLSCSASSSVSYMNWYQQKPGTSPRRLIYDSSKLASGIPARFSGSGSGRDYTLTISSLEPEDFAVYYCQQWSRNPPTFGGGTKVEIK and state if its % Retained 60° C. is at or above 90%. 0

Please check the record CD3B2050 (scFv) scFv: QVQLVQSGAEVKKPGSSVKVSCKASGYTFTRSTMHWVKQAPGQGLEWMGYINPSSAYTNYNQKFQGRVTLTADKSTSTAYMELSSLRSEDTAVYYCASPQVHYDYNGFPYWGQGTLVTVSSGGSEGKSSGSGSESKSTGGSEIVLTQSPATLSASPGERVTLSCSASSSVSYMNWYQQKPGQSPRRLIYDSSKLASGVPARFSGSGSGRDYTLTISSLEPEDFAVYYCQQWSRNPPTFGGGTKVEIK and state if its % Retained 60° C. is at or above 90%. 1
